src = DBAASP

Escherichia coli ATCC 25922: recorded MIC for assorted compounds
Give the number; µM is assumed, so skip it.

CC[C@H](C)[C@H](N)C(=O)N[C@@H](Cc1cnc[nH]1)C(=O)N[C@@H](CCCCN)C(=O)N[C@@H](Cc1ccccc1)C(=O)N[C@@H](Cc1c[nH]c2ccccc12)C(=O)N[C@@H](CCCN=C(N)N)C(=O)NCC(=O)NCC(=O)N[C@@H](CCCN=C(N)N)C(=O)N[C@@H](Cc1c[nH]c2ccccc12)C(=O)N[C@@H](Cc1ccccc1)C(=O)N[C@@H](CCCCN)C(=O)N[C@@H](Cc1cnc[nH]1)C(=O)N[C@H](C(N)=O)[C@@H](C)CC [IHKFWRGGRWFKHI]
8
CC(C)C[C@H](NC(=O)[C@H](C)NC(=O)[C@H](CCCCN)NC(=O)[C@H](CC(C)C)NC(=O)[C@H](C)NC(=O)[C@H](CCCCN)NC(=O)[C@H](CCCCN)NC(=O)[C@H](CC(C)C)NC(=O)[C@H](C)NC(=O)[C@H](CCCCN)NC(=O)[C@H](CC(C)C)NC(=O)[C@H](C)NC(=O)[C@H](CCCCN)NC(=O)[C@H](CCCCN)NC(=O)[C@H](CC(C)C)NC(=O)[C@H](C)NC(=O)[C@H](CCCCN)NC(=O)[C@H](CC(C)C)NC(=O)[C@H](C)NC(=O)[C@@H](N)CCCCN)C(=O)N[C@@H](CCCCN)C(N)=O [KALKALKKALKALKKALKALK]
4

Prompt: What value of MIC on Escherichia coli ATCC 25922 does CC(C)C[C@H](NC(=O)[C@H](Cc1ccccc1)NC(=O)[C@@H]1CCCN1C(=O)[C@H](C)NC(=O)[C@H](C)NC(=O)[C@H](Cc1c[nH]c2ccccc12)NC(=O)[C@@H]1CCCN1C(=O)[C@H](Cc1ccccc1)NC(=O)[C@H](CCCN=C(N)N)NC(=O)[C@H](CCCN=C(N)N)NC(=O)[C@@H](N)C(C)C)C(=O)N[C@@H](CCCN=C(N)N)C(=O)N[C@@H](CCCN=C(N)N)C(N)=O [VRRFPWAAPFLRR] have?
Completion: 90.5
